# SYSTEM NAME: T1, PTK6 SH2 domain (human, UniProt Q13882 78-170)
# T1 construct: PTK6, human; source: bacterial expression, purified
# T1 sequence (Q13882 78-170): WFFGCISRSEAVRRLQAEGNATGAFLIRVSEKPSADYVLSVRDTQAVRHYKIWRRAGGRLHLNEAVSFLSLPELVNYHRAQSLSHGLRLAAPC
# ASSAY METHOD TEXT: fluorescence polarisation; saturation binding in solution: rhodamine peptide fixed at 10 nM, protein titrated 0.002-10 uM, 20 min at room temperature; assay buffer 20 mM HEPES, 100 mM KCl, 0.1% Tween-20, 5 mM DTT, pH 7.8; apparent KD
# CONDITION SET: both partners purified
Non-standard residues stand in square brackets, D forms with d. No end group written: not given here. pY = N[C@@H](Cc1ccc(OP(=O)(O)O)cc1)C(=O)O; Rhodamine = not defined here; rhodamine = not defined here
Consider the following binders and their measured pKd readings.
pKd here is simply -log10 of the concentration when that concentration is written in mol/L.

BINDER: rhodamine-SEQG[pY]EEMRAFQD (reading uncertain, human ErbB3 around Tyr1289; also called labeled peptide 7; source: synthetic peptide) [ErbB3pY1289 phosphopeptide, rhodamine-labelled]
MEASURED ENDPOINT: pKd
MEASURED VALUE: 5.68

Please examine the following record next.
Sample Rhodamine-EDEE[pY]EYMNRRRD (reading uncertain, human ErbB3 around Tyr1197; also called labeled peptide 4; source: synthetic peptide) [ErbB3pY1197 phosphopeptide, rhodamine-labelled] ; pKd observed: 5.24
